- target.under.test: hGIPR (Homo sapiens, UniProt P48546)
- Sequence (P48546 22-466): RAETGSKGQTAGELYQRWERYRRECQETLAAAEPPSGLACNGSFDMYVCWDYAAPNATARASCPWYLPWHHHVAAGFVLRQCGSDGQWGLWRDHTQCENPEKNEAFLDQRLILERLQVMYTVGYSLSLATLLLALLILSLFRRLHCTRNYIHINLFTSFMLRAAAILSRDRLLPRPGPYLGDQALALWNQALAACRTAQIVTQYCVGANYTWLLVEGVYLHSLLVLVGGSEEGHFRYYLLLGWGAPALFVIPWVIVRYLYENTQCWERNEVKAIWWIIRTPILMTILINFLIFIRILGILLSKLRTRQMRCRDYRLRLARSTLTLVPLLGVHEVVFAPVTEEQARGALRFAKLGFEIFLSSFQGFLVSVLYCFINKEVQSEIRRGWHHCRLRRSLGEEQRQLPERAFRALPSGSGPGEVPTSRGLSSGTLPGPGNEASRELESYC
- test.description: Functional cAMP activity in the presence of 1% HSA
- Assay type: cell-based
- assay.conditions: read-out: cAMP Rel EC50, hGIPR
Starred links: 1 amine or outer side, 2 acyl side, 3 side chain; linkers in the order of their positions; H or OH if unused. Non-standard residues stand in square brackets, D forms with d. Groups on a side chain read outwards from the residue. *: point of attachment. C20 diacid = O=C(O)CCCCCCCCCCCCCCCCCCC(=O)*; C18 diacid = O=C(O)CCCCCCCCCCCCCCCCC(=O)*; αMePhe(2-F) = C[C@](N)(Cc1ccccc1F)C(=O)O; γGlu = O=C(O)[C@H](CCC(=O)[*:2])N[*:1]; αMe4Pal = C[C@](N)(Cc1ccncc1)C(=O)O; αMeY = C[C@](N)(Cc1ccc(O)cc1)C(=O)O; 4Pal = N[C@@H](Cc1ccncc1)C(=O)O; αMeL = CC(C)C[C@](C)(N)C(=O)O; αMeS = C[C@](N)(CO)C(=O)O; Orn = NCCC[C@H](N)C(=O)O; AEEA = NCCOCCOCC(=O)O; Aib = CC(C)(N)C(=O)O
// reported EC50 per item

substance	EC50
H-Y[Aib]QGTFTSD[4Pal]S[Orn][αMeL]LDKK([γGlu-γGlu-C18 diacid])AQ[αMe4Pal]AFIEYLIAGGPSSGEPPPSGTE-NH2 [Example 980]	15.4 nM
H-Y[Aib]QGTFTSD[4Pal]SK[αMeL]LDKK([AEEA-γGlu-C18 diacid])AQ[Aib]AFIEYLIE[Aib]GESSGEPPPSGS-NH2 [Example 282]	22.1 nM
H-Y[Aib]QGTFTSD[4Pal]SQ[αMeL]LDKK([AEEA-γGlu-C18 diacid])AQ[αMe4Pal]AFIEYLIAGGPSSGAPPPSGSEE-NH2 [Example 1029]	22.3 nM
H-Y[Aib]QGT[αMePhe(2-F)]TSD[4Pal][αMeS]I[αMeL]LD[Orn]K([AEEA-γGlu-C18 diacid])AQ[αMe4Pal]EFI[dE][αMeY]LVEGGPSSGEPPPSGE-NH2 [Example 750]	1.34 nM
H-Y[Aib]QGTFTSDFS[Orn][αMeL]LDKK([AEEA-γGlu-C20 diacid])AQ[Aib]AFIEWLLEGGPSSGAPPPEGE-NH2 [Example 101]	133 nM
H-Y[Aib]QGT[αMePhe(2-F)]TSD[4Pal][αMeS]I[αMeL]LD[Orn]K([AEEA-γGlu-C18 diacid])AQ[Aib][Orn]FI[dE][αMeY]LIEGGPSSGEPPPEEG-NH2 [Example 462]	1.62 nM
H-Y[Aib]QGT[αMePhe(2-F)]TSD[4Pal][αMeS]I[αMeL]LD[Orn]K([γGlu-γGlu-C18 diacid])AQ[Aib][Orn]FI[dE][αMeY]LSEGGPSSGEPPPSGAEE-NH2 [Example 567]	13.4 nM
H-Y[Aib]QGT[αMePhe(2-F)]TSDYSILLDKK([AEEA-γGlu-C18 diacid])AQ[Aib]AFIEFLEEGGPSSGAPPPSEG-NH2 [Example 412]	12.5 nM
H-Y[Aib]QGT[αMePhe(2-F)]TSD[4Pal][αMeS]I[αMeL]LD[Orn]K([AEEA-γGlu-C18 diacid])AQ[αMe4Pal]EFI[dE][αMeY]LIEGGPSSGAPPPSGE-NH2 [Example 1140]	0.869 nM
H-Y[Aib]QGT[αMePhe(2-F)]TSD[4Pal]SI[αMeL]LD[Orn]K([AEEA-γGlu-C18 diacid])AQ[αMe4Pal][Orn]FI[dE][αMeY]LIEGGPSSGEPPPESE-NH2 [Example 677]	1.03 nM
H-Y[Aib]QGT[αMePhe(2-F)]TSD[4Pal]SILLDKK([γGlu-γGlu-C18 diacid])AQ[Aib]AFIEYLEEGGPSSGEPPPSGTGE-NH2 [Example 607]	6.63 nM
